- Tested on: MOLT-4;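 also: ALL cell lines in 384-well plates, five doses spanning 10,000-fold, each plate scaled between vehicle and 100 µmol/L benzalkonium chloride controls, sDSS an adapted area-under-curve metric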
- ASSAY_TEXT: selective drug sensitivity score (sDSS, relative to normal bone marrow) (sDSS (score)); higher = more potent and effective on the cell line relative to normal bone marrow cells
- REPORTED_CONDITIONS: 72 h
selective drug sensitivity score below 5 gives Not met; selective drug sensitivity score at or above it gives Met.

Ask | Determine whether measured selective drug sensitivity score meets or exceeds 5 for COc1cc2nccc(Oc3ccc(NC(=O)NC4CC4)c(Cl)c3)c2cc1C(N)=O [Lenvatinib] (top concentration 2500 nM)
Reply | Not met

Ask | Param item: CC(C)C[C@@H](C(=O)N[C@H](C(=O)OC1CCCC1)c1ccccc1)[C@H](O)C(=O)NO [Tosedostat] (top concentration 10000 nM)
Reply | Not met

Ask | Param item: CN(C)c1cc2c(cc1Sc1nc3c(N)nccc3n1CCNCC(C)(C)C)OCO2 [CUDC-305] (top concentration 10000 nM)
Reply | Met

Ask | Param item: Nc1nc(Cl)nc2c1ncn2[C@H]1C[C@H](O)[C@@H](CO)O1 [Cladribine] (top concentration 1000 nM)
Reply | Not met

Ask | Param item: Cc1cn(-c2cc(NC(=O)c3ccc(C)c(Nc4nccc(-c5cccnc5)n4)c3)cc(C(F)(F)F)c2)cn1 [Nilotinib] (top concentration 10000 nM)
Reply | Not met

Ask | Param item: O=C(/C=C\n1cnc(-c2cc(C(F)(F)F)cc(C(F)(F)F)c2)n1)NNc1ccccn1 [Verdinexor] (top concentration 1000 nM)
Reply | Met

Ask | Param item: CC[C@H](C)C(=O)O[C@H]1C[C@@H](C)C=C2C=C[C@H](C)[C@H](CC[C@@H]3C[C@@H](O)CC(=O)O3)[C@H]21 [Lovastatin] (top concentration 10000 nM)
Reply | Not met

Ask | Param item: O=C(CCCCCCC(=O)Nc1ccccc1)NO [Vorinostat] (top concentration 10000 nM)
Reply | Met

Ask | Param item: Cc1ccc(=O)n(-c2ccccc2)c1 [Pirfenidone] (top concentration 10000 nM)
Reply | Not met

Ask | Param item: FC(F)c1nc2ccccc2n1-c1nc(N2CCOCC2)nc(N2CCOCC2)n1 [ZSTK474] (top concentration 10000 nM)
Reply | Met

Ask | Param item: CCN(CC)CCCC(C)Nc1c2ccc(Cl)cc2nc2ccc(OC)cc12 (stereo not drawn) [Mepacrine] (top concentration 50000 nM)
Reply | Not met

Ask | Param item: NC(=O)c1cccc2cn(-c3ccc(C4CCCNC4)cc3)nc12 (stereo not drawn) [Niraparib] (top concentration 10000 nM)
Reply | Not met

The reported measurements were obtained from the supplement of paper PMC8967900.
